tested on: NCI-H226 lung; assay: NCI tumour cell line growth inhibition, 48 h
endpoint: GI50

• CC1=C(C(=O)Nc2ccc(Cl)c(Cl)c2)C(c2cccc(O)c2)NC(=S)N1 (configuration not stated) = 12 µM
• NNc1nc(-c2ccccn2)nc2sc3c(c12)CCCCCC3 = 10.3 µM
• O=C(Nc1cccc(-n2cc(-c3ccncc3)c(-c3ccc(O)c(Cl)c3)n2)c1)Nc1ccc(Cl)c(C(F)(F)F)c1 = 2.02 µM
• OCCCNC(=S)Nc1ccc(-c2nc3ccccc3s2)cc1 = 18.5 µM
• N=C(N)c1ccc(-c2ccc(-c3ccco3)o2)cc1F = 2.61 µM

Fill in the blank: the reported GI50 of COc1ccc2c(c1)c(=O)oc1cc(OC/C(=N\O)c3ccc(F)cc3)ccc12 is ____.
37 µM

# get_value(readout='GI50', item= O=C1C=CC(=O)N1CCCCCCCCCCN1C(=O)C=CC1=O )
17.1 µM
